# testedSystem: cAMP and cAMP-inhibited cGMP 3',5'-cyclic phosphodiesterase 10A (Homo sapiens, UniProt Q9Y233)
pIC50: −log10 of the molar value.
Mark true for reported pIC50 of 7 or greater; mark false for anything smaller.

>  <molecule>
Cc1cccc(-c2cn3c(n2)C[C@H](NC(=O)c2c(C(=O)N(C)C4CC4)cnn2C)CC3)c1 [Roche-Dataset for PDE10A, Compound 114]

>  <assignedCategory>
true

$$$$
>  <molecule>
Cn1ncc(C(=O)N2CCC2)c1C(=O)Nc1ccn2nc(-c3cccc(OCF)c3)nc2c1 [Roche-Dataset for PDE10A, Compound 96]

>  <assignedCategory>
true

$$$$
>  <molecule>
COc1ccccc1-c1cn2c(n1)C[C@H](NC(=O)c1c(C(=O)N3CC(F)C3)cnn1C)CC2 [Roche-Dataset for PDE10A, Compound 379]

>  <assignedCategory>
true

$$$$
>  <molecule>
CN(CCO)C(=O)c1cnn(C)c1C(=O)Nc1ccn2nc(N3CCOCC3)nc2c1 [Roche-Dataset for PDE10A, Compound 276]

>  <assignedCategory>
true

$$$$
>  <molecule>
Cn1cc(-c2ccccc2)nc1CCc1cncc(-c2ccn[nH]2)n1 [Roche-Dataset for PDE10A, Compound 289]

>  <assignedCategory>
false

$$$$
>  <molecule>
Cc1cc(NC(=O)c2c(C(=O)N3CCC3)cnn2C)nn1C1CCCC1 [Roche-Dataset for PDE10A, Compound 1063]

>  <assignedCategory>
false

$$$$
>  <molecule>
CC(C)Oc1cccc(NC(=O)c2nc(C3CC3)cnc2Nc2cncnc2)n1 [Roche-Dataset for PDE10A, Compound 917]

>  <assignedCategory>
true

$$$$
>  <molecule>
CN1CCN(c2nc3cc(NC(=O)c4c(C(=O)N5CCC5)cnn4C)ccc3s2)CC1 [Roche-Dataset for PDE10A, Compound 546]

>  <assignedCategory>
false

$$$$
>  <molecule>
O=C(Nc1ccc2cc(-c3ccccc3)nn2c1)c1onc2ccc(Br)cc12 [Roche-Dataset for PDE10A, Compound 523]

>  <assignedCategory>
true

$$$$
>  <molecule>
COc1cccc(NC(=O)c2nc(C3CC3)cnc2Nc2cncnc2)n1 [Roche-Dataset for PDE10A, Compound 1011]

>  <assignedCategory>
true

$$$$
>  <molecule>
Cn1nc(-c2ccc(Cl)cn2)cc1NC(=O)c1nc(C2CC2)ccc1Nc1cncnc1

>  <assignedCategory>
true

$$$$
>  <molecule>
CN(C)C(=O)c1nn(-c2ccccn2)cc1NC(=O)c1nc(C2CC2)ccc1Nc1cncnc1

>  <assignedCategory>
true

$$$$
>  <molecule>
Cc1ncc(C)n2nc(/C=C/c3nc(N4C[C@@H]5C[C@H]6CN(C(=O)OC(C)(C)C)C[C@]65C4)nn3C)nc12 [Roche-Dataset for PDE10A, Compound 1066]

>  <assignedCategory>
false

$$$$
>  <molecule>
CNC(=O)c1cn(C)c(CCc2nc3c(C)ncc(C)n3n2)n1 [Roche-Dataset for PDE10A, Compound 675]

>  <assignedCategory>
false

$$$$
